System: K-562 leukemia
MEASUREMENT_DESCRIPTION: NCI-60 one-dose screen, 48 h
COND: 10 µM unless noted
About 83,000 compounds went through this panel and 20% of them were active in at least one assay; those are over-represented in the sample as a whole. Calls of active or inactive are those of the source. The calls were made as follows: active = growth percent below 10; inactive = the rest.
Outcome codes: class 1 for active, class 0 for inactive

* CCCCCCCCCCCCCCCCCCOc1ccccc1CCCOP(=O)(O)OCC[N+](C)(C)C | class 0
* O=C(Nn1c(NCC(=O)N2c3ccccc3Sc3ccccc32)nnc1-c1ccc(O)cc1)c1ccccc1 | class 0
* COc1cc(/C=N/NC(=O)c2ccc(C)nc2)cc(OC)c1OC | class 0
* Nc1nc(Cl)cc(=O)n1Cc1ccccc1 | class 0
* COc1cc2cc(Oc3ccc(NC(=O)Nc4cccc(C(F)(F)F)c4)cc3)c(C)nc2cc1OCCN1CCOCC1 | class 0
* CCOC(=O)c1c2c(n(-c3ccc(C#N)cc3)c1-c1ccccc1)C=CCC2 | class 0
* Cc1ccc(-c2nc(SCC(=O)Nc3nc(-c4ccc(Cl)cc4)cs3)[nH]c(=O)c2C#N)cc1 | class 0
* O=C1CCC/C=C\C[C@H]2C=CC(=O)/C2=C/C[C@H](CCc2cccc(C(F)(F)F)c2)O1 | class 1
* N#Cc1c(-c2ccc(Cl)cc2)nc2c(c(-c3ccccc3)nn2-c2ccccc2)c1-c1ccc(O)cc1 | class 1
